# Tested on: CCRF-CEM leukemia
# experiment-summary: NCI-60 one-dose screen, 48 h (100 = growth as untreated, 0 = no growth, -100 = all killed)
# condition-info: 10 µM unless noted
About 83,000 compounds went through this panel and 20% of them were active in at least one assay; those are over-represented in the sample as a whole.
Below is a list of entries, each paired with its recorded growth value.
Reply with just the number (in %).

Examples with their reported growth follow.
Reported growth for COc1ccc2[nH]cc(-c3cc(N)n4nc(-c5cn(C)c6ccccc56)cc4n3)c2c1 : what is it? -39.3

Reported growth for CC(=O)Nc1cccc(Nc2nccc(N[C@@H](C)c3ccccc3)n2)c1 : what is it? 24.9

Reported growth for NS(=O)(=O)c1ccc(NNC(=O)CCC(=O)c2ccccc2)cc1 : what is it? 75.1

Reported growth for C#C[C@]1(O)CC[C@H]2[C@@H]3CC=C4c5sc(-c6ccc([N+](=O)[O-])cc6)nc5CC[C@]4(C)[C@H]3CC[C@@]21C : what is it? 9.17

Reported growth for C=CC[N+](C)(C)CCn1c2ccccc2c2nc3cc(C)c(C)cc3nc21 : what is it? 102

Moving on to the next molecule.
Reported growth for COc1cc(-c2cc(-c3cccc(OCC(=O)O)c3)[nH]c(=O)c2C#N)cc(OC)c1OC : what is it? 93.7
